Assay: ATG_CMV_CIS: Attagene CIS-FACTORIAL HepG2 Assay for human CMV (Internal Marker) (AID 2282928);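 note: endpoint acts as a background internal control marker rather than a target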
Conditions: HepG2 CMV promoter reporter, transcription factor profiling; actives raise or lower the signal
Active and inactive are the calls of the source. Rule for the calls: active = hit-call score of the fitted dose curve at least 0.9, where 1 is the maximum; inactive = score below 0.9.
Give one outcome, nothing more. List: TRUE = active, FALSE = inactive

>>> classification("COP(=S)(OC)Oc1c(Cl)cc(C)cc1Cl")
"FALSE"

stdin: # fetch the recorded call for "CCc1ccccc1N" here
stdout: FALSE

stdin: # fetch the recorded call for "O=[N+]([O-])c1c(Cl)c(Cl)cc(Cl)c1Cl" here
stdout: TRUE

stdin: # fetch the recorded call for "COC(=O)c1sccc1S(=O)(=O)NC(=O)Nc1nc(C)nc(OC)n1" here
stdout: FALSE

---

Test: CCTE_Simmons_MITO_max_resp_rate: CCTE's HepG2 Seahorse XF Respirometric Screening Assay at Maximal Respiratory State [uncoupled], Simmons Lab (AID 2284002)
Settings: actives raise or lower the signal
Activity calls are given as the source filed them. How the source made its calls: active means hit-call score of the fitted dose curve at least 0.9, where 1 is the maximum; inactive means score below 0.9.
Give one outcome, nothing more. List: active, inactive

These recorded examples may help you get a feel for the data.
>>> classification("O=C(O)C(F)(F)C(F)(F)C(F)(F)C(F)(F)C(F)(F)C(F)(F)C(F)(F)C(F)(F)C(F)(F)C(F)(F)F")
"inactive"
>>> classification("CCCCCCCCc1ccc(O)cc1")
"active"
>>> classification("O=C1C2(Cl)C3(Cl)C4(Cl)C(Cl)(Cl)C5(Cl)C3(Cl)C1(Cl)C5(Cl)C24Cl (configuration not stated)")
"active"
>>> classification("COc1cc(-c2ccc(N)c(OC)c2)ccc1N")
"inactive"
>>> classification("CCC(C)(C)c1ccc(O)c(C(C)(C)CC)c1")
"active"

stdin: # fetch the recorded call for "CC(C)(c1ccccc1)c1ccc(O)c(C(C)(C)c2ccccc2)c1" here
stdout: active

stdin: # fetch the recorded call for "C[C@]12CCC(=O)C[C@@H]1CC[C@@H]1[C@@H]2CC[C@]2(C)[C@@H](O)CC[C@@H]12" here
stdout: inactive

---

Read-out: Apolipoprotein A-V (APOA5) gene, APOA5 (gene 116519)
Test: LTEA_HepaRG_APOA5: Life Technologies and Expression Analysis (LTEA) Assay for Apolipoprotein A-V (APOA5) gene using HepaRG (AID 2283474)
Settings: mRNA level, 48 h; actives raise or lower the signal
Calls of active or inactive are those of the source. The calls were made as follows: active = hit-call score of the fitted dose curve at least 0.9, where 1 is the maximum; inactive = score below 0.9.
Give one outcome, nothing more. List: active, inactive

>>> classification("CC12CC1(C)C(=O)N(c1cc(Cl)cc(Cl)c1)C2=O (centres undefined)")
"inactive"
>>> classification("CCCCCCCCc1ccc(O)cc1")
"inactive"
>>> classification("CC(=O)[O][Hg][c]1ccccc1")
"active"

Attention now shifts to the item below.
stdin: # fetch the recorded call for "ClCC(Cl)CCl" here
stdout: active

---

Assay: BSK_KF3CT_SRB: Viability Assessment in the BioMAP Diversity Plus: KF3CT Assay (AID 2283069);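 note: total protein by sulforhodamine B staining as a cytotoxicity measure; read 24 h after compound addition; fitted for both signal gain and loss against DMSO baseline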
Conditions: primary human keratinocytes with fibroblasts
Active and inactive are the calls of the source. Rule for the calls: active = hit-call score of the fitted dose curve at least 0.9, where 1 is the maximum; inactive = score below 0.9.
Give one outcome, nothing more. List: active, inactive

>>> classification("CC(=O)C(Cl)C(=O)N(C)C (configuration not stated)")
"inactive"
>>> classification("BrCCBr")
"inactive"
>>> classification("ClC1=C(Cl)[C@]2(Cl)[C@H]3[C@H]([C@H]4C=C[C@H]3C4)[C@@]1(Cl)C2(Cl)Cl")
"inactive"

stdin: # fetch the recorded call for "Oc1c(I)cc(I)cc1I" here
stdout: inactive

stdin: # fetch the recorded call for CCCCC(CC)CO[N+](=O)[O-] (configuration not stated) here
stdout: active

stdin: # fetch the recorded call for ClC1(Cl)C2(Cl)C3(Cl)C4(Cl)C(Cl)(Cl)C5(Cl)C3(Cl)C1(Cl)C5(Cl)C24Cl (configuration not stated) here
stdout: inactive

stdin: # fetch the recorded call for O=C1C2(Cl)C3(Cl)C4(Cl)C(Cl)(Cl)C5(Cl)C3(Cl)C1(Cl)C5(Cl)C24Cl (configuration not stated) here
stdout: active

stdin: # fetch the recorded call for "O=[N+]([O-])c1ccc(O)c([N+](=O)[O-])c1" here
stdout: inactive

---

Assay: ATG_AP_2_CIS: Attagene CIS-FACTORIAL HepG2 Assay for human Activator Protein 2 (AP-2) (AID 2282932)
Conditions: HepG2 AP-2 cis-reporter, Attagene transcription factor profiling; actives raise or lower the signal
Activity calls are given as the source filed them. The calls were made as follows: active = hit-call score of the fitted dose curve at least 0.9, where 1 is the maximum; inactive = score below 0.9.
property_measured: outcome

// known answers, use as guide
>>> result("COc1cc2c(cc1OC)[C@@]13CCN4CC5=CCO[C@H]6CC(=O)N2[C@H]1[C@H]6[C@H]5C[C@H]43")
"inactive"
>>> result("CCc1ccccc1N")
"inactive"
>>> result("O=C(OC1CCCCC1)c1ccccc1C(=O)OC1CCCCC1")
"inactive"
>>> result("CN(C)P(=O)(N(C)C)N(C)C")
"inactive"
>>> result("CC(Br)C(=O)O (stereo not drawn)")
"inactive"
>>> result("Oc1cccc2cccnc12")
"inactive"
>>> result("COC(=O)Cc1ccccc1")
"inactive"

Lab note: next compound to report on.
# outcome of "Cl/C=C/Cl" = inactive

---

Read-out: solute carrier (SLCO1B1), SLCO1B1 (gene 10599)
Experiment: LTEA_HepaRG_SLCO1B1: Life Technologies and Expression Analysis (LTEA) Assay for solute carrier (SLCO1B1) using HepaRG (AID 2283530)
Conditions: mRNA level, 48 h; actives raise or lower the signal
The source made the active and inactive calls. How the source made its calls: active means hit-call score of the fitted dose curve at least 0.9, where 1 is the maximum; inactive means score below 0.9.
Give one outcome, nothing more. List: active, inactive

>>> classification("Cn1sc(Cl)cc1=O")
"inactive"
>>> classification("CC(=O)[O][Hg][c]1ccccc1")
"inactive"
>>> classification("O=C1C2(Cl)C3(Cl)C4(Cl)C(Cl)(Cl)C5(Cl)C3(Cl)C1(Cl)C5(Cl)C24Cl (stereo not drawn)")
"active"
>>> classification("CC(C)(C)c1cc(O)ccc1O")
"inactive"
>>> classification("C=CC(=O)OCCCCCC(C)C")
"inactive"
>>> classification("Cc1ccccc1N")
"inactive"
>>> classification("CCC(=O)C(CC(C)N(C)C)(c1ccccc1)c1ccccc1 (stereo not drawn)")
"inactive"

Attention now shifts to the item below.
stdin: # fetch the recorded call for "NC(=O)O" here
stdout: inactive

---

Read-out: Early growth response protein 1 (EGR1) transcription factor, EGR1 (gene 1958)
Assay: LTEA_HepaRG_EGR1: Life Technologies and Expression Analysis (LTEA) Assay for Early growth response protein 1 (EGR1) transcription factor using HepaRG (AID 2283490)
Details: mRNA level, 48 h; actives raise or lower the signal
Calls of active or inactive are those of the source. Rule for the calls: active = hit-call score of the fitted dose curve at least 0.9, where 1 is the maximum; inactive = score below 0.9.
Give one outcome, nothing more. List: active, inactive

>>> classification("CC12CC1(C)C(=O)N(c1cc(Cl)cc(Cl)c1)C2=O (stereo not given)")
"inactive"
>>> classification("C[C@@H]1C[C@@H]([C@H](O)CC2CC(=O)NC(=O)C2)C(=O)[C@@H](C)C1")
"active"
>>> classification("O=[N+]([O-])c1ccc(O)c([N+](=O)[O-])c1")
"active"
>>> classification("Cn1sc(Cl)cc1=O")
"inactive"

stdin: # fetch the recorded call for ClC1(Cl)C2(Cl)C3(Cl)C4(Cl)C(Cl)(Cl)C5(Cl)C3(Cl)C1(Cl)C5(Cl)C24Cl (stereo not given) here
stdout: inactive

---

Experiment: TOX21_p53_BLA_p4_viability: Viability Assessment in the Tox21 HCT-116 p53 Agonism Beta-lactamase Assay, Phase 4 (AID 2283597);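 note: hits lower the luminescence signal meaning cytotoxicity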
Records with an inconclusive call do not appear. The source made the active and inactive calls. The calls were made as follows: active = hit-call score of the fitted dose curve at least 0.9, where 1 is the maximum; inconclusive = response in the unintended direction; inactive = score below 0.9.
Give one outcome, nothing more. List: true (1) (active), false (0) (inactive)

>>> classification("COP(=O)(OC)OC")
"false (0)"
>>> classification("CCOP(=O)(CN(CCO)CCO)OCC")
"false (0)"
>>> classification("CNC")
"false (0)"
>>> classification("Nc1cccc2ccccc12")
"false (0)"
>>> classification("O=C(NCO)NCO")
"false (0)"
>>> classification("O=C(CCl)CCl")
"false (0)"
>>> classification("CC(C#N)CCC#N (stereo not given)")
"false (0)"
>>> classification("ClCC(Cl)CCl")
"false (0)"

stdin: # fetch the recorded call for "CC(C)OC(=S)S" here
stdout: false (0)

stdin: # fetch the recorded call for "Nc1ccc(N=Nc2ccc(-c3ccc(N=Nc4c(S(=O)(=O)O)cc5cc(S(=O)(=O)O)c(N=Nc6ccccc6)c(O)c5c4N)cc3)cc2)c(N)c1" here
stdout: false (0)

stdin: # fetch the recorded call for "ClCCBr" here
stdout: false (0)

stdin: # fetch the recorded call for "CCN1CCC2(CC1)COc1cc3c(cc12)N(C(=O)c1ccc(-c2ccc(-c4nnc(C)o4)cc2C)cc1)CC3" here
stdout: true (1)

---

Read-out: Monokine induced gamma interferon (MIG), CXCL9 (gene 4283)
Experiment: BSK_hDFCGF_MIG: BioMAP Diversity Plus: hDFCGF Assay for Monokine induced gamma interferon (MIG) Biomarker Activity (AID 2283063)
Settings: primary human foreskin fibroblasts; actives raise or lower the signal
The source made the active and inactive calls. The calls were made as follows: active = hit-call score of the fitted dose curve at least 0.9, where 1 is the maximum; inactive = score below 0.9.
Give one outcome, nothing more. List: active, inactive

>>> classification("OCc1ccco1")
"inactive"

stdin: # fetch the recorded call for CC12CC1(C)C(=O)N(c1cc(Cl)cc(Cl)c1)C2=O (stereo not drawn) here
stdout: inactive

stdin: # fetch the recorded call for "CCN1CCC2(CC1)COc1cc3c(cc12)N(C(=O)c1ccc(-c2ccc(-c4nnc(C)o4)cc2C)cc1)CC3" here
stdout: active

stdin: # fetch the recorded call for "CC(C)c1ccc(CO)cc1" here
stdout: inactive

stdin: # fetch the recorded call for CCC(=O)C(CC(C)N(C)C)(c1ccccc1)c1ccccc1 (stereo not drawn) here
stdout: inactive

stdin: # fetch the recorded call for "C(=NC1CCCCC1)=NC1CCCCC1" here
stdout: active

stdin: # fetch the recorded call for "ClC1=C(Cl)[C@]2(Cl)[C@H]3[C@H]([C@H]4C=C[C@H]3C4)[C@@]1(Cl)C2(Cl)Cl" here
stdout: inactive

stdin: # fetch the recorded call for "CC(C)(C)CC(C)(C)c1ccc(O)cc1" here
stdout: active

stdin: # fetch the recorded call for "COP(=S)(OC)Oc1c(Cl)cc(C)cc1Cl" here
stdout: inactive

stdin: # fetch the recorded call for "COP(=S)(OC)Oc1cc(Cl)c(Cl)cc1Cl" here
stdout: inactive

stdin: # fetch the recorded call for "Nc1ncc([N+](=O)[O-])s1" here
stdout: inactive

stdin: # fetch the recorded call for "CC(=O)[O][Hg][c]1ccccc1" here
stdout: active

stdin: # fetch the recorded call for "Cn1sc(Cl)cc1=O" here
stdout: active
